# Tested on: C. albicans (ATCC CRM 10231)
# Format: cell-based, Candida albicans
# condition.summary: ATCC CRM 10231
Where no end group is shown, it is not given here.
quantity.name: MBC

Fetch value of MBC on C. albicans (ATCC CRM 10231) for FVNVLDKIR-NH2 [FV-9, FVNVLDKIR-NH2] .
>512 µM

Fetch value of MBC on C. albicans (ATCC CRM 10231) for LFVNVLDKIR-NH2 [LF-10, LFVNVLDKIR-NH2] .
>512 µM

Fetch value of MBC on C. albicans (ATCC CRM 10231) for GLWNSIKIAGKKLFVNVLDKIR-NH2 [GL-22] .
256 µM

Fetch value of MBC on C. albicans (ATCC CRM 10231) for FVNVLDKI-NH2 [FV-8, FVNVLDKI-NH2] .
>512 µM

* * *

# Tested on: C. albicans (ATCC CRM 10231)
# Type: cell-based, Candida albicans
# condition.summary: ATCC CRM 10231
Where no end group is shown, it is not given here.
Kindly supply the reported MIC values for the records listed here.

State, in one line, measured MIC of LFVNVLDKIR-NH2 [LF-10, LFVNVLDKIR-NH2]
>512 µM

State, in one line, measured MIC of FVNVLDKIR-NH2 [FV-9, FVNVLDKIR-NH2]
>512 µM

State, in one line, measured MIC of GLWNSIKIAGKKLFVNVLDKIR-NH2 [GL-22]
128 µM

State, in one line, measured MIC of FVNVLDKI-NH2 [FV-8, FVNVLDKI-NH2]
>512 µM

* * *

# System: MRSA (ATCC CRM 12493)
# Type: cell-based, methicillin-resistant S. aureus
# condition.summary: ATCC CRM 12493, 24 h
Where no end group is shown, it is not given here.
Kindly supply the reported MBIC values for the records listed here.

Fetch value of MBIC on MRSA (ATCC CRM 12493) for FVNVLDKI-NH2 [FV-8, FVNVLDKI-NH2] .
>512 µM

Fetch value of MBIC on MRSA (ATCC CRM 12493) for LFVNVLDKIR-NH2 [LF-10, LFVNVLDKIR-NH2] .
>512 µM

Fetch value of MBIC on MRSA (ATCC CRM 12493) for FVNVLDKIR-NH2 [FV-9, FVNVLDKIR-NH2] .
>512 µM

Fetch value of MBIC on MRSA (ATCC CRM 12493) for GLWNSIKIAGKKLFVNVLDKIR-NH2 [GL-22] .
8 µM

* * *

# Tested on: K. pneumoniae (ATCC CRM 43816)
# Format: cell-based, Klebsiella pneumoniae
# condition.summary: ATCC CRM 43816, 24 h
Where no end group is shown, it is not given here.
Kindly supply the reported MBEC values for the records listed here.

State, in one line, measured MBEC of FVNVLDKI-NH2 [FV-8, FVNVLDKI-NH2]
>512 µM

State, in one line, measured MBEC of FVNVLDKIR-NH2 [FV-9, FVNVLDKIR-NH2]
>512 µM

State, in one line, measured MBEC of GLWNSIKIAGKKLFVNVLDKIR-NH2 [GL-22]
> 512 µM

State, in one line, measured MBEC of LFVNVLDKIR-NH2 [LF-10, LFVNVLDKIR-NH2]
>512 µM

Every entry's value here was drawn from paper PMC9405102.
